Hey, just so you know, these numbers are from ChEMBL document CHEMBL1141596.

Molecular target: B1 bradykinin receptor (Homo sapiens, UniProt P46663)
Sequence (P46663 whole entry): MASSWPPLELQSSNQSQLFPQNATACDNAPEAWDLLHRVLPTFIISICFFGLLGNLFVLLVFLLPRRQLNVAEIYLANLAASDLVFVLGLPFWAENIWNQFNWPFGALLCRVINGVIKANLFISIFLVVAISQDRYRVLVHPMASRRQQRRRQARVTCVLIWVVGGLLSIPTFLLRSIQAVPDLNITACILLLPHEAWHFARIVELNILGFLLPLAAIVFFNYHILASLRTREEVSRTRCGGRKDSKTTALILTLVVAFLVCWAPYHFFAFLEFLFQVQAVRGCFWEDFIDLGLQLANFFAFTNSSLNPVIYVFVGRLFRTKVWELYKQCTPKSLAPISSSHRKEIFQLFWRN
test.readout: pKi
Please treat pKi as minus the base-10 logarithm of the molar concentration.

C[C@@H](NC(=O)C1(NC(=O)C(F)(F)F)CC1)c1ccc(-c2cc(Cl)cc(Cl)c2OCC(F)(F)F)cc1F    8.74
C[C@@H](NC(=O)C1(NC(=O)c2ccon2)CC1)c1ncc(-c2cc(Cl)cc(Cl)c2OCC(F)F)cc1F    8.92
CCOc1c(Cl)cc(Cl)cc1-c1cnc([C@@H](C)NC(=O)C2(NC(=O)C(F)(F)F)CC2)c(F)c1    8.82

# pKi (compound: "CCOc1c(Cl)cccc1-c1ccc([C@@H](C)NC(=O)C2(NC(=O)C(F)(F)F)CC2)c(F)c1" ) is 9.05

For reference, reported pKi for "C[C@@H](NC(=O)C1(NC(=O)C(F)(F)F)CC1)c1ncc(-c2cc(Cl)cc(Cl)c2OCC(F)F)cc1F" stands at 8.82
